Catalogue of pIC50 readings, one per entry.
MEASUREMENT_TARGET: hFARS1 (Homo sapiens, UniProt Q9Y285)
Sequence (Q9Y285 1-508): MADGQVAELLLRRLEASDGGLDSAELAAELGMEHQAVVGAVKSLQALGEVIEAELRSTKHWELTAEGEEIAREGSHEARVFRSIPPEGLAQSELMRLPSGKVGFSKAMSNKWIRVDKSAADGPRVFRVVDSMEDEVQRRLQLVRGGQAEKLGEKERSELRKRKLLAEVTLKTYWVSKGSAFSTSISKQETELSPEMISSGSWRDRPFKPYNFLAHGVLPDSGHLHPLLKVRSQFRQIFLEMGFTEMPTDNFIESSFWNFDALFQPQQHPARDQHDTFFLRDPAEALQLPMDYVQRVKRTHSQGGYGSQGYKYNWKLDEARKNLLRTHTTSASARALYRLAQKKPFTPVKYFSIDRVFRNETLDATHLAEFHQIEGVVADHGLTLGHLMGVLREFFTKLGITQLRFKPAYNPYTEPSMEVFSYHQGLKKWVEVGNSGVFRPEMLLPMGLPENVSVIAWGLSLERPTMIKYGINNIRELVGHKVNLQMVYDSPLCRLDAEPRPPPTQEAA
Sequence (Q9NSD9 1-589 partner): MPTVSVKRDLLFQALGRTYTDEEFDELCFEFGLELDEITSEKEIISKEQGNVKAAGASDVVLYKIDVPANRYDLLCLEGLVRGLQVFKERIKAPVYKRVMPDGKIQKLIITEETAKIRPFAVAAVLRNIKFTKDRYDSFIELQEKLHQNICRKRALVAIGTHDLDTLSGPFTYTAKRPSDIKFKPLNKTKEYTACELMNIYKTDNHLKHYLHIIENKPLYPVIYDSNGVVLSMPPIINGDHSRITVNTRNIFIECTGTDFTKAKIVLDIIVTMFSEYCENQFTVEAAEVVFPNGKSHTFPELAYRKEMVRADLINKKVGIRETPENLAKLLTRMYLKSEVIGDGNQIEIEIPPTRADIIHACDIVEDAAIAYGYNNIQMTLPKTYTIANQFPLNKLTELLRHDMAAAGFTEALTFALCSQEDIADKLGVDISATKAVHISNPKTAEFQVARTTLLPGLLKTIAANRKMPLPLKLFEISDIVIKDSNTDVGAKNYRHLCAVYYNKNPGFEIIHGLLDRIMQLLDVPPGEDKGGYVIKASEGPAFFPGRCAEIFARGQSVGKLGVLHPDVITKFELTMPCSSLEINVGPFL
pIC50: −log10 of the molar value.

Known results for molecules:
> print(dat)
                              sample.smiles  measured.property  reported.result
1  O=C(Nc1cccnc1)N1CCC(Cc2cccc(Oc3ccc(C(F)(F)F)cn3)c2)CC1              pIC50           < 3.70
2  O=C(Nc1cccnn1)N1CCC(=Cc2cccc(Oc3ccc(C(F)(F)F)cn3)c2)CC1              pIC50           < 3.70

// `O=C(Nc1cccc(S(=O)(=O)NCCc2c[nH]c3ccccc23)c1)Nc1nccs1` : pIC50 value = < 3.70

---

MEASUREMENT_TARGET: hFARS2 (Homo sapiens, UniProt O95363)
Sequence (O95363 38-451 limits assumed): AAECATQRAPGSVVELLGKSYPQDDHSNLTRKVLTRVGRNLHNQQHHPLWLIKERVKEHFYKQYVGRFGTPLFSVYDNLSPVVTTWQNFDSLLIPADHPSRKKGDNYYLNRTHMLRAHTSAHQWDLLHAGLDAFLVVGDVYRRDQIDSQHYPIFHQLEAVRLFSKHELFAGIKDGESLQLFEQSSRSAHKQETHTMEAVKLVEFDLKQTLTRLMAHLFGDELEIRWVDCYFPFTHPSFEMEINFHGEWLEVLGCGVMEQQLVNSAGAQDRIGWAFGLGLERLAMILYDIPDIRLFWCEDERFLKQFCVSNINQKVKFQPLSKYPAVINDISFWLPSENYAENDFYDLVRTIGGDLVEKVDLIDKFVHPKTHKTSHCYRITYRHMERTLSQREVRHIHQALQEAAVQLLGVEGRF
MEASURED_PROPERTY: IC50

> print(dat)
                                   compound  measured.property  reported.result
1  O=C(Nc1cccnc1)N1CCC(Cc2cccc(Oc3ccc(C(F)(F)F)cn3)c2)CC1 [PF-3845]               IC50         > 200 µM
2  O=C(Nc1cccc(S(=O)(=O)NCCc2c[nH]c3ccccc23)c1)Nc1nccs1 [GDI05-001]               IC50          85.4 µM

Now for another entry.
Form field IC50, entry O=C(Nc1cccnn1)N1CCC(=Cc2cccc(Oc3ccc(C(F)(F)F)cn3)c2)CC1 [PF-04457845] : > 200 µM

---

ASSAY_METHOD_TEXT: Cytotoxicity, CellTiter-Glo, Vero E6
Format: cell-based
RUN_CONDITIONS: African green monkey, Vero E6 cells
MEASURED_PROPERTY: CC50 at 48 h (µM)
Expressed in µM, but write only the number.

Field CC50 at 48 h (entry O=C(Nc1cccnc1)N1CCC(Cc2cccc(Oc3ccc(C(F)(F)F)cn3)c2)CC1 [PF-3845] ) reads 21.7

---

Tested on: HEK-293T
ASSAY_METHOD_TEXT: in vitro
Format: cell-based, human
RUN_CONDITIONS: human, 48 h
MEASURED_PROPERTY: CC50 (µM)
Numeric answer only, unit µM assumed.

// `O=C(Nc1cccnn1)N1CCC(=Cc2cccc(Oc3ccc(C(F)(F)F)cn3)c2)CC1` : CC50 value = 23.6

---

ASSAY_METHOD_TEXT: in vitro
Type: cell-based
RUN_CONDITIONS: human, CC50, HepG2
Experimental: HEK293T, Vero E6, and HepG2 cells were cultured in Dulbecco's modified Eagle's medium plus 10% fetal bovine serum and 1% penicillin/streptomycin at 37 °C with 5% CO2. Plates of 96 wells were plated with 100 μl 1 × 10^5 cells/ml per well and incubated for 24 h before adding compound in serial dilutions. […] Luminescence was recorded with plate reader. The data were analyzed with GraphPad Prism 9. […]
MEASURED_PROPERTY: CC50 at 48 h (µM)
API: value field is a number in µM; no unit string.

Sample `O=C(Nc1cccnn1)N1CCC(=Cc2cccc(Oc3ccc(C(F)(F)F)cn3)c2)CC1` ; CC50 at 48 h observed: 25.8

---

MEASUREMENT_TARGET: Mtb PheRS (Mycobacterium tuberculosis)
ASSAY_METHOD_TEXT: biochemical
RUN_CONDITIONS: read-out: IC50, AMP Glo, Mtb PheRS
Each record here notes measured IC50.
Answer format: numeric, nM implied, no suffix.

Past entries and their recorded results:
> print(dat)
                              sample.smiles  reported.result
1  O=C(Nc1cccnc1)N1CCC(Cc2cccc(Oc3ccc(C(F)(F)F)cn3)c2)CC1             2490
2  O=C(Nc1cccnn1)N1CCC(=Cc2cccc(Oc3ccc(C(F)(F)F)cn3)c2)CC1            10100

Pending compound:
Lab note: measured IC50 of `O=C(Nc1cccc(S(=O)(=O)NCCc2c[nH]c3ccccc23)c1)Nc1nccs1` was 870

---

MEASUREMENT_TARGET: Mtb PheRS (Mycobacterium tuberculosis, UniProt P9WFU3)
Sequence (P9WFU3 whole entry): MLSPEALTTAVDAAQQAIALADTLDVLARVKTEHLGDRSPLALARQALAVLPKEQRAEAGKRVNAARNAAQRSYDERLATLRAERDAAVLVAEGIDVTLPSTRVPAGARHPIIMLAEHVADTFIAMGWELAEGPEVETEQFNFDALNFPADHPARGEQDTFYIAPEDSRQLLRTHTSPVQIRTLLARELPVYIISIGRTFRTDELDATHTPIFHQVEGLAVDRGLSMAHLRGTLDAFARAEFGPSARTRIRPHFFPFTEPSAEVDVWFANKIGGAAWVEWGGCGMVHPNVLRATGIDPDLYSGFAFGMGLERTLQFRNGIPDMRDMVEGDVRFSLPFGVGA
Sequence (P9WFU1 whole entry, further chain): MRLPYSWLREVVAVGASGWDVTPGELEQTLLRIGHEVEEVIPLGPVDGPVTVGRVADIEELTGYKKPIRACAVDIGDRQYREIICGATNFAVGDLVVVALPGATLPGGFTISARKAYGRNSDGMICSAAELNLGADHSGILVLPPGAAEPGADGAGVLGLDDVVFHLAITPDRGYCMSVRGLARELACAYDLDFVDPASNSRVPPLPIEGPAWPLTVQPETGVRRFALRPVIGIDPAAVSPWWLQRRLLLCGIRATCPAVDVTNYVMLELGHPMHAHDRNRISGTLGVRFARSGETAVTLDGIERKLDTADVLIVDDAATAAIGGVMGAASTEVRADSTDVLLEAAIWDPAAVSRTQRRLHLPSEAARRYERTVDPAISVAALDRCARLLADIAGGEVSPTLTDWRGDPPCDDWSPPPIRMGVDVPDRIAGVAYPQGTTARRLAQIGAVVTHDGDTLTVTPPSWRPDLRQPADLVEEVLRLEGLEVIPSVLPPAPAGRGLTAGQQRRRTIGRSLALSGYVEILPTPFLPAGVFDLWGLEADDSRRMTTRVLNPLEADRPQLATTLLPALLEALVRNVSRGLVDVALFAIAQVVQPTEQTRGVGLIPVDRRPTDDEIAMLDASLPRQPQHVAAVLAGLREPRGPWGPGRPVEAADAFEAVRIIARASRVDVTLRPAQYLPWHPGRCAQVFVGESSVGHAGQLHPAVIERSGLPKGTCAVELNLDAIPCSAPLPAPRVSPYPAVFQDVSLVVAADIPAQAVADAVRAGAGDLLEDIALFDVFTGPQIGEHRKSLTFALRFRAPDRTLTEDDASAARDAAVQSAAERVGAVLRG
ASSAY_METHOD_TEXT: biochemical
RUN_CONDITIONS: Ki with regard to ATP when SO4 2- was absent, mixed inhibition mode, no sulfate
MEASURED_PROPERTY: Ki
A bare number is not enough; add the unit after it.

Briefly, Ki measured for O=C(Nc1cccnc1)N1CCC(Cc2cccc(Oc3ccc(C(F)(F)F)cn3)c2)CC1 [PF-3845] : 1080 nM

---

Tested on: HepG2
ASSAY_METHOD_TEXT: in vitro
Assay type: cell-based
RUN_CONDITIONS: human, 48 h
MEASURED_PROPERTY: CC50 (µM)
Give the number; µM is assumed, so skip it.

The recorded CC50 for entry `O=C(Nc1cccnn1)N1CCC(=Cc2cccc(Oc3ccc(C(F)(F)F)cn3)c2)CC1` equals 25.8

---

Test system: HEK-293T
ASSAY_METHOD_TEXT: in vitro
Format: cell-based, human
RUN_CONDITIONS: 48 h, CellTiter-Glo; read-out: CC50, HEK-293T
MEASURED_PROPERTY: CC50 (µM)
Respond numerically; units are µM and should not be typed.

Response field CC50 (HEK-293T) for item `O=C(Nc1cccnc1)N1CCC(Cc2cccc(Oc3ccc(C(F)(F)F)cn3)c2)CC1` : 16.9

---

MEASUREMENT_TARGET: UniProt:P9WFU3
ASSAY_METHOD_TEXT: biochemical
RUN_CONDITIONS: read-out: IC50, Malachite Green, Mtb PheRS
Overview of reported IC50 across a group of compounds:
Enter your answer as a number in µM; do not include the unit.

> print(dat)
                                   compound  measurement.target  measured.property  reported.result
1  O=C(Nc1cccnc1)N1CCC(Cc2cccc(Oc3ccc(C(F)(F)F)cn3)c2)CC1 [PF-3845]      UniProt:P9WFU3               IC50             1.95
2  O=C(Nc1cccnn1)N1CCC(=Cc2cccc(Oc3ccc(C(F)(F)F)cn3)c2)CC1 [PF-04457845]      UniProt:P9WFU3               IC50             11.7

The compound listed as O=C(Nc1cccc(S(=O)(=O)NCCc2c[nH]c3ccccc23)c1)Nc1nccs1 [GDI05-001] has a reported IC50 of 0.52
